Test: Thermodynamic solubility of the compound in pH 7.4 phosphate buffered saline measured after 24 hrs by UV-HPLC analysis
Assay type: physicochemical
Conditions: read-out: Therm_solubility
observable: solubility thermodynamic at 24 h (µM)

C=CC(=O)N(c1cccc(Cl)c1F)c1ncnc2cc(OC)c(OCCCN3CCOCC3)cc12 : 1200
C=CC(=O)N(c1cccc(Cl)c1F)c1ncnc2cc(OC)c(OC(=O)N3CCN(C)C[C@H]3C)cc12 : 30
C=CC(=O)N(c1ccc(F)c(Cl)c1)c1ncnc2cc(OC)c(OCCCN3CCOCC3)cc12 : 1650

a: C=CC(=O)N(c1ccc(Cl)c(Cl)c1)c1ncnc2cc(OC)c(OCCCN3CCOCC3)cc12
b: COc1cc2ncnc(Nc3cccc(Cl)c3F)c2cc1OC(=O)N1CCN(C)C[C@H]1C
Could you please tell me which of these two has the higher solubility thermodynamic at 24 h: a or b ? Answer format: the label of the selected item.
a

====

Tested on: A549
Assay: Cytotoxicity against human A549 cells after 72 hrs by MTT assay
Assay type: functional, cell-based
Settings: A549, 72 h
List of IC50 values.
Answer with a number only, understood to be in µM.

Known results for compounds:
C=CC(=O)N(c1cccc(Cl)c1F)c1ncnc2cc(OC)c(OC(=O)N3CCN(C)C[C@H]3C)cc12 : 6.1
C=CC(=O)N(c1cccc(Cl)c1F)c1ncnc2cc(OC)c(OCCCN3CCOCC3)cc12 : 0.45
C=CC(=O)N(c1ccc(Cl)c(Cl)c1)c1ncnc2cc(OC)c(OCCCN3CCOCC3)cc12 : 5.72
COc1cc2ncnc(Nc3ccc(Cl)c(Cl)c3)c2cc1OCCCN1CCOCC1 : 24.7
C=CC(=O)N(c1ccc(F)c(Cl)c1)c1ncnc2cc(OC)c(OCCCN3CCOCC3)cc12 : 0.15

Item: COc1cc2ncnc(Nc3cccc(Cl)c3F)c2cc1OC(=O)N1CCN(C)C[C@H]1C [AZD-3759] | IC50: 28.7

Item: COc1cc2ncnc(Nc3cccc(Cl)c3F)c2cc1OCCCN1CCOCC1 | IC50: 7.51

====

pIC50: −log10 of the molar value.
Measured pIC50 on Epidermal growth factor receptor (Homo sapiens, UniProt P00533) follows.
Sequence (P00533 whole entry): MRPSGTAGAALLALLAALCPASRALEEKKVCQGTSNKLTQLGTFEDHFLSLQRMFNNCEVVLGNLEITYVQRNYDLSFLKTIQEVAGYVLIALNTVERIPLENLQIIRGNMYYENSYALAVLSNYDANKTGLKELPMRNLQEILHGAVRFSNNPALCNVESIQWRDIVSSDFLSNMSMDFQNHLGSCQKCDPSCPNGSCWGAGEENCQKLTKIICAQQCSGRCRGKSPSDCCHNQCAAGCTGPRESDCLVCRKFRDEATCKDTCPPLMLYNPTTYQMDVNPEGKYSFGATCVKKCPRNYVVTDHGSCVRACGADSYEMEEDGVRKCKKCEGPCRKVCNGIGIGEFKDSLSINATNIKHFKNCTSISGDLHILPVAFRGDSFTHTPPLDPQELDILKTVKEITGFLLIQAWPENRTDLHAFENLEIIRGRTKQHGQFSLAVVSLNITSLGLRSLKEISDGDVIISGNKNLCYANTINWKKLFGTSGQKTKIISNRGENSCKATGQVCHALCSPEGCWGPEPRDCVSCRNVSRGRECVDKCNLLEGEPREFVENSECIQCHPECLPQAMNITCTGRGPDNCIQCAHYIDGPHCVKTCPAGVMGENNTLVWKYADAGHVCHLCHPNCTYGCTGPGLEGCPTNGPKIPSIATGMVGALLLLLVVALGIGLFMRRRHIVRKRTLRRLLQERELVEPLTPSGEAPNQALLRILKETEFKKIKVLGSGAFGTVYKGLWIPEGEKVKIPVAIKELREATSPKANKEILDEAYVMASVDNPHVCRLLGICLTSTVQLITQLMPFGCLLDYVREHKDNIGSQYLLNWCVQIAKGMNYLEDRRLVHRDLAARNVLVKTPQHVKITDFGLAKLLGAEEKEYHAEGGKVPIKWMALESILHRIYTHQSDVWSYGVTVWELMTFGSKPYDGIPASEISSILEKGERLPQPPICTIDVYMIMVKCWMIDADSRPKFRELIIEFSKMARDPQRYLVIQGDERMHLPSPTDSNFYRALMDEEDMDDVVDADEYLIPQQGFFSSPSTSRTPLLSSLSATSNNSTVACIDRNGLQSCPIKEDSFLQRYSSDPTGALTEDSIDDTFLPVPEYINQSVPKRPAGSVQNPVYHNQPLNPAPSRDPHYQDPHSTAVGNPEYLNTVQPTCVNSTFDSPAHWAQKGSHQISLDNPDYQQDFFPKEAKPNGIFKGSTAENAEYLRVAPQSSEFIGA
observable: pIC50

C=CC(=O)N(c1cc(F)c(F)cc1F)c1ncnc2cc(OC)c(OCCCN3CCOCC3)cc12 : 6.30
C=CC(=O)N(c1ccc(F)cc1F)c1ncnc2cc(OC)c(OCCCN3CCOCC3)cc12 : 6.52

1: C=CC(=O)N(c1ccc(F)c(F)c1)c1ncnc2cc(OC)c(OCCCN3CCOCC3)cc12
2: C=CC(=O)N(c1cc(Cl)ccc1F)c1ncnc2cc(OC)c(OCCCN3CCOCC3)cc12
Could you point out whether the larger pIC50 belongs to 1 or to 2 ? Answer by quoting the chosen item's label.
2

====

Assay: GSH reactivity in pH 7.4 phosphate buffer assessed as half life measured every 15 mins by HPLC analysis
Format: physicochemical
Conditions: phosphate buffer with GSH
observable: half-life (min)

C=CC(=O)N(c1cccc(Cl)c1F)c1ncnc2cc(OC)c(OC(=O)N3CCN(C)C[C@H]3C)cc12 : 27.5

1: C=CC(=O)N(c1cccc(Cl)c1F)c1ncnc2cc(OC)c(OCCCN3CCOCC3)cc12
2: C=CC(=O)N(c1ccc(F)c(Cl)c1)c1ncnc2cc(OC)c(OCCCN3CCOCC3)cc12
3: C=CC(=O)N(c1ccc(Cl)c(Cl)c1)c1ncnc2cc(OC)c(OCCCN3CCOCC3)cc12
Order field: half-life | Direction: descending (largest first) Hello, could you send the labels back in the order asked? Thank you.
2, 1, 3
(2: 85.1 min, 1: 49 min, 3: 17 min)
